Target: Gastrin/cholecystokinin type B receptor (Homo sapiens) (UniProt P32239)
Sequence (P32239 whole entry): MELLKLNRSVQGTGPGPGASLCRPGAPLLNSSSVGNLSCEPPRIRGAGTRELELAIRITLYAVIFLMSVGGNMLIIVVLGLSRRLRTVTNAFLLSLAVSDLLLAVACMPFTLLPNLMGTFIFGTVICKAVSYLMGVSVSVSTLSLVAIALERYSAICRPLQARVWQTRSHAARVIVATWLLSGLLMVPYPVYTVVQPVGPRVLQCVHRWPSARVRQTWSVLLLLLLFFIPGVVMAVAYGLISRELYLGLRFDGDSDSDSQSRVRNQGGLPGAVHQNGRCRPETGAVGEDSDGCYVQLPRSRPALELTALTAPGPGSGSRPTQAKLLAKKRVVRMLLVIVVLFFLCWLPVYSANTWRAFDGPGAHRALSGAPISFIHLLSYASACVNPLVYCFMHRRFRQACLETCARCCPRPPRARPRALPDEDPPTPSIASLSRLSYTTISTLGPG
Assay: Agonist activity against human CCK2 receptor assessed as receptor activation at 10000 nM
Format: functional
property.label: Activity

1) COc1cccc(-n2cc(C(=O)N3CCN(c4ccc5ncccc5c4)CC3)nc2-c2ccc(C)cc2)c1 :: < 20%
2) CCOc1cccc(-n2cc(C(=O)N3CCN(c4cnc5ccccc5c4)CC3)nc2-c2ccccc2F)c1 :: < 36%
3) Cc1ccc(-c2nc(C(=O)N3CCN(c4ccc5ccccc5c4)CC3)cn2-c2cccc(OC(F)(F)F)c2)cc1 :: < 21%

Consider the record given below.
stdin: Reported Activity for `CCCOc1cccc(-n2cc(C(=O)N3CCN(c4ccc5ccccc5c4)CC3)nc2-c2ccc(C)cc2)c1` : what is it?
stdout: < 21%

###

Recorded measurements of Cmax, one per entry
Experiment: Cmax in mouse at 1.0 mg/kg, iv and 10 mg/kg, po
Assay type: ADME, organism-based
Details: in vivo
Give just the number in µM; leave the unit off.

Consider the reported Cmax for these compounds:
1) CCOc1cccc(-n2cc(C(=O)N3CCN(c4cc(C(=O)O)c5ccccc5c4)CC3)nc2-c2ccc(C)cc2F)c1 :: 0.82
2) CCOc1cccc(-n2cc(C(=O)N3CCN(c4cc(C(=O)O)c5ccccc5c4)CC3)nc2-c2ccc(F)cc2)c1 :: 1.1

Consider the record given below.
stdin: Reported Cmax for `CCOc1cccc(-n2cc(C(=O)N3CCN(c4cc(C(=O)O)c5ccccc5c4)CC3)nc2-c2ccc(C)cc2)c1` : what is it?
stdout: 0.28

###

Recorded measurements of pEC50, one per entry
Target: Cholecystokinin receptor type A (Homo sapiens, UniProt P32238)
Test: Agonist activity against human CCK1 receptor
The scale used: pEC50 is minus the common logarithm of the concentration in molar units.

Consider the reported pEC50 for these compounds:
1. Cc1ccc(-c2nc(C(=O)N3CCN(c4cc(C(=O)O)c5ccccc5c4)CC3)cn2-c2ccc3c(c2)OCCO3)cc1 :: 9.85
2. CCOc1cccc(-n2cc(C(=O)N3CCN(c4ccc5ccccc5c4)CC3)nc2-c2ccc(C)cc2)c1 :: 8.18
3. Cc1ccc(-c2nc(C(=O)N3CCN(c4ccc5ccccc5c4)CC3)cn2-c2cccc(OC(F)(F)F)c2)cc1 :: 5.50
4. O=C(c1cn(-c2ccc3c(c2)OCCO3)c(-c2ccc(F)cc2)n1)N1CCN(c2cnc3ccccc3c2)CC1 :: 9.59

stdin: Reported pEC50 for `COc1cccc(-n2cc(C(=O)N3CCN(c4ccc5ncccc5c4)CC3)nc2-c2ccc(C)cc2)c1` : what is it?
stdout: 8.03

stdin: Reported pEC50 for `CCOc1cccc(-n2cc(C(=O)N3CCN(c4cnc5ccccc5c4)CC3)nc2-c2ccc(C)cc2F)c1` : what is it?
stdout: 9.89

stdin: Reported pEC50 for `COc1cccc(-n2cc(C(=O)N3CCN(c4cccc(Cl)c4)CC3)nc2-c2ccc(C)cc2)c1` : what is it?
stdout: 7.13

stdin: Reported pEC50 for `COc1cccc(-n2cc(C(=O)N3CCN(c4cc5ccccc5cc4C(=O)O)CC3)nc2-c2ccc(C)cc2)c1` : what is it?
stdout: 9.40

###

Target: Cholecystokinin receptor type A (Homo sapiens, UniProt P32238)
Sequence (P32238 whole entry): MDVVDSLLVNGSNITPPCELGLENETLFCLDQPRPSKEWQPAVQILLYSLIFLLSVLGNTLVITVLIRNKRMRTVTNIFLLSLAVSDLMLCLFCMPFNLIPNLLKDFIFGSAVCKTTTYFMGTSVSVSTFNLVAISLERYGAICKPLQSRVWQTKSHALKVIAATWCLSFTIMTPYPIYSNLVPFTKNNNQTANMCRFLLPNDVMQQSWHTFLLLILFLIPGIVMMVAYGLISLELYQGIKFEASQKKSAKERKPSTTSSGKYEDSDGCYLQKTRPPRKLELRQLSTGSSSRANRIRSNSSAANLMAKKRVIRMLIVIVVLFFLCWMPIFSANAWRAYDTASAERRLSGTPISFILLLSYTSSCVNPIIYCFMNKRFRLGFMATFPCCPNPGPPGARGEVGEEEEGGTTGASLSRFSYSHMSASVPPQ
Assay: Agonist activity against human CCK1 receptor
Recorded measurements of EC50, one per entry
Give just the number in nM; leave the unit off.

1. O=C(O)c1cc(N2CCN(C(=O)c3cn(-c4ccc5c(c4)OCCO5)c(-c4ccc(F)cc4)n3)CC2)cc2ccccc12 :: 0.093
2. COc1cccc(-n2cc(C(=O)N3CCN(c4ccc5cnccc5c4)CC3)nc2-c2ccc(C)cc2)c1 :: 106
3. COc1cccc(-n2cc(C(=O)N3CCN(c4cc5ccccc5cn4)CC3)nc2-c2ccc(C)cc2)c1 :: 8.4
4. COc1cccc(-n2cc(C(=O)N3CCN(c4cccc5ccccc45)CC3)nc2-c2ccc(C)cc2)c1 :: 5370
5. CCOc1cccc(-n2cc(C(=O)N3CCN(c4cc(C(=O)O)c5ccccc5c4)CC3)nc2-c2ccc(F)cc2F)c1 :: 0.053
6. COc1cccc(-n2cc(C(=O)N3CCN(c4nc5ccccc5[nH]4)CC3)nc2-c2ccc(C)cc2)c1 :: 9.1
7. CCOc1cccc(-n2cc(C(=O)N3CCN(c4cnc5ccccc5c4)CC3)nc2-c2ccc(C)cc2)c1 :: 0.73
8. Cc1ccc(-c2nc(C(=O)N3CCN(c4ccc5ccccc5c4)CC3)cn2-c2cccc(OCC(F)(F)F)c2)cc1 :: 1350
9. COc1cccc(-n2cc(C(=O)N3CCN(c4ccc5ccccc5n4)CC3)nc2-c2ccc(C)cc2)c1 :: 43
10. CCOc1cccc(-n2cc(C(=O)N3CCN(c4ccc5ccccc5c4)CC3)nc2-c2ccc(C)cc2F)c1 :: 1.9

stdin: Hello, I am looking for reported EC50 with Cholecystokinin receptor type A (Homo sapiens, UniProt P32238) for `CCOc1cccc(-n2cc(C(=O)N3CCN(c4ccc5ccccc5c4)CC3)nc2-c2ccccc2)c1` . Could you help?
stdout: 7.4

stdin: Hello, I am looking for reported EC50 with Cholecystokinin receptor type A (Homo sapiens, UniProt P32238) for `Cc1ccc(-c2nc(C(=O)N3CCN(c4ccc5ccccc5c4)CC3)cn2-c2cccc(O)c2)cc1` . Could you help?
stdout: 82

Sourced from ChEMBL document CHEMBL1155836
